Conditions: human gut metagenome, 24 h, 2 µM; also: call rule not given here
RECORDED_ENDPOINT: Bacterial Biotransformation

# count of solved cases: 5
# MOLECULE, Bacterial Biotransformation
records = [
    ("CC(CN1c2ccccc2Sc2ccccc21)N(C)C (stereo not drawn)", "Compound NOT metabolized"),
    ("CC(C)NCC(O)COc1ccc(COCCOC(C)C)cc1.CC(C)NCC(O)COc1ccc(COCCOC(C)C)cc1.O=C(O)/C=C/C(=O)O (stereo not drawn) [BISOPROLOL FUMARATE]", "Compound metabolized"),
    ("Cc1ccc(-c2nc3ccc(C)cn3c2CC(=O)N(C)C)cc1", "Compound NOT metabolized"),
    ("COC(=O)Nc1nc2ccc(C(=O)c3ccccc3)cc2[nH]1", "Compound metabolized"),
    ("CC(C(=O)O)c1ccc2c(c1)Cc1cccnc1O2 (stereo not drawn)", "Compound metabolized"),
]

Query: Bacterial Biotransformation; subject: COc1ccccc1OCC(O)CN1CCN(CC(=O)Nc2c(C)cccc2C)CC1 (stereo not drawn)
Compound NOT metabolized

Would you kindly repeat that for CCC(=O)NCC[C@@H]1CCc2ccc3c(c21)CCO3 ?
Compound metabolized

Would you kindly repeat that for CN1CCc2c(c3ccccc3n2Cc2ccccc2)C1.CN1CCc2c(c3ccccc3n2Cc2ccccc2)C1.O=S(=O)(O)c1cccc2c(S(=O)(=O)O)cccc12 ?
Compound NOT metabolized

----------
Conditions: human gut metagenome, 24 h, 2 µM
RECORDED_ENDPOINT: Bacterial Biotransformation

# COMPOUND, OBS_VALUE
measured = [
    ("CCc1nn(CCCN2CCN(c3cccc(Cl)c3)CC2)c(=O)n1CCOc1ccccc1", "Compound NOT metabolized"),
    ("CN1CCN(C(=O)O[C@H]2c3nccnc3C(=O)N2c2ccc(Cl)cn2)CC1", "Compound NOT metabolized"),
    ("CC(O)(CS(=O)(=O)c1ccc(F)cc1)C(=O)Nc1ccc(C#N)c(C(F)(F)F)c1 (centres undefined) [BICALUTAMIDE]", "Compound NOT metabolized"),
    ("CN(C)CCC=C1c2ccccc2C=Cc2ccccc21", "Compound NOT metabolized"),
    ("CC(C(=O)O)c1ccc2c(c1)Cc1cccnc1O2 (centres undefined)", "Compound metabolized"),
]

Query: Bacterial Biotransformation; subject: CC(CN(C)C)CN1c2ccccc2CCc2ccccc21.O=C(O)/C=C\C(=O)O (centres undefined) [TRIMIPRAMINE MALEATE]
Compound NOT metabolized

Would you kindly repeat that for CCCCCOC(=O)Nc1nc(=O)n([C@@H]2O[C@H](C)[C@@H](O)[C@H]2O)cc1F ?
Compound metabolized

Would you kindly repeat that for CC(CN1c2ccccc2Sc2ccccc21)N(C)C (centres undefined) ?
Compound metabolized

Would you kindly repeat that for C=CCc1ccccc1OCC(O)CNC(C)C (centres undefined) ?
Compound NOT metabolized

----------
Test: The drug is tested on WLS-073 corresponding to human gut metagenome with ENA study accession number: PRJEB37062 and ENA sample accession number: ERS12561749 for biotransformation under anaerobic condition. The drug concentrations were measured over 9 timepoints collected between 0 and 24 hours of incubation by liquid-chromatography-coupled mass spectrometry (LC–MS)
Settings: 2 µM
RECORDED_ENDPOINT: Bacterial Biotransformation

# COMPOUND, Bacterial Biotransformation
measured = [
    ("CN1C(=O)CC(C)(c2ccccc2)C1=O (stereo not drawn) [METHSUXIMIDE]", "Compound NOT metabolized"),
    ("Cc1ccc(-c2cc(C(F)(F)F)nn2-c2ccc(S(N)(=O)=O)cc2)cc1", "Compound metabolized"),
    ("CC(=O)OCC(=O)[C@@]12N=C(C)O[C@@H]1C[C@H]1[C@@H]3CCC4=CC(=O)C=C[C@]4(C)[C@H]3[C@@H](O)C[C@@]12C", "Compound metabolized"),
    ("CC(CN(C)C)CN1c2ccccc2CCc2ccccc21.O=C(O)/C=C\\C(=O)O (stereo not drawn) [TRIMIPRAMINE MALEATE]", "Compound NOT metabolized"),
    ("CO[C@]12C[C@@H](COC(=O)c3cncc(Br)c3)CN(C)[C@@H]1Cc1cn(C)c3cccc2c13", "Compound metabolized"),
    ("CCCc1nc2c(C)cc(-c3nc4ccccc4n3C)cc2n1Cc1ccc(-c2ccccc2C(=O)O)cc1", "Compound metabolized"),
    ("COC1=CC(=O)C[C@@H](C)[C@]12Oc1c(Cl)c(OC)cc(OC)c1C2=O", "Compound metabolized"),
]

Read the next record carefully.
Query: Bacterial Biotransformation; subject: Nc1c2c(nc3ccccc13)CCCC2
Compound NOT metabolized

----------
Conditions: human gut metagenome, 24 h, 2 µM
RECORDED_ENDPOINT: Bacterial Biotransformation

# COMPOUND, Bacterial Biotransformation
data = [
    ("CN1CCc2c(c3ccccc3n2Cc2ccccc2)C1.CN1CCc2c(c3ccccc3n2Cc2ccccc2)C1.O=S(=O)(O)c1cccc2c(S(=O)(=O)O)cccc12", "Compound NOT metabolized"),
    ("CCOC(=O)[C@H](CCc1ccccc1)N[C@@H](C)C(=O)N1[C@H](C(=O)O)C[C@@H]2CCC[C@@H]21", "Compound metabolized"),
    ("NC12CC3CC(CC(C3)C1)C2", "Compound NOT metabolized"),
    ("O=c1[nH]c2ccccc2n1C1CCN(CCCC(c2ccc(F)cc2)c2ccc(F)cc2)CC1 [PIMOZIDE]", "Compound NOT metabolized"),
    ("CN1C(=O)CCS(=O)(=O)C1c1ccc(Cl)cc1 (centres undefined)", "Compound NOT metabolized"),
    ("COc1cc2nc(N(C)CCCNC(=O)C3CCCO3)nc(N)c2cc1OC (centres undefined)", "Compound NOT metabolized"),
]

Query: Bacterial Biotransformation; subject: CC(C(=O)O)c1ccc2c(c1)Cc1cccnc1O2 (centres undefined)
Compound metabolized

Would you kindly repeat that for Cc1ccc(-c2cc(C(F)(F)F)nn2-c2ccc(S(N)(=O)=O)cc2)cc1 ?
Compound NOT metabolized

Would you kindly repeat that for CN/C(=N/CCSCc1nc[nH]c1C)NC#N ?
Compound NOT metabolized

----------
Details: human gut metagenome, 24 h, 2 µM
RECORDED_ENDPOINT: Bacterial Biotransformation

# count of solved cases: 5
# COMPOUND, OBS_VALUE
measured = [
    ("Br.CN(C)CCCC1(c2ccc(F)cc2)OCc2cc(C#N)ccc21 (stereo not drawn) [CITALOPRAM HYDROBROMIDE]", "Compound NOT metabolized"),
    ("CCCCCCOC(=O)/N=C(/N)c1ccc(NCc2nc3cc(C(=O)N(CCC(=O)OCC)c4ccccn4)ccc3n2C)cc1.CS(=O)(=O)O [DABIGATRAN ETEXILATE MESYLATE]", "Compound NOT metabolized"),
    ("C=CCN1CC[C@]23c4c5ccc(O)c4O[C@H]2C(=O)CC[C@@]3(O)[C@H]1C5", "Compound NOT metabolized"),
    ("CN1C(=O)CCS(=O)(=O)C1c1ccc(Cl)cc1 (stereo not drawn)", "Compound NOT metabolized"),
    ("CC(C)(C(=O)O)c1ccc(C(O)CCCN2CCC(C(O)(c3ccccc3)c3ccccc3)CC2)cc1 (stereo not drawn) [FEXOFENADINE]", "Compound NOT metabolized"),
]

Query: Bacterial Biotransformation; subject: CCOC(=O)[C@H](CCc1ccccc1)N[C@@H](C)C(=O)N1[C@H](C(=O)O)C[C@@H]2CCC[C@@H]21
Compound metabolized

Would you kindly repeat that for CN(C)CCC=C1c2ccccc2C=Cc2ccccc21 ?
Compound metabolized

Would you kindly repeat that for Cc1cn([C@H]2C[C@H](N=[N+]=[N-])[C@@H](CO)O2)c(=O)[nH]c1=O ?
Compound NOT metabolized

----------
Test: The drug is tested on WLS-077 corresponding to human gut metagenome with ENA study accession number: PRJEB37062 and ENA sample accession number: ERS12561750 for biotransformation under anaerobic condition. The drug concentrations were measured over 9 timepoints collected between 0 and 24 hours of incubation by liquid-chromatography-coupled mass spectrometry (LC–MS)
Details: 2 µM
RECORDED_ENDPOINT: Bacterial Biotransformation

# COMPOUND, Bacterial Biotransformation
data = [
    ("COc1ccccc1N1CCN(CC(O)COc2cccc3ccccc23)CC1 (stereo not given) [NAFTOPIDIL]", "Compound NOT metabolized"),
    ("CCN(CC)CCNC(=O)c1cc(Cl)c(N)cc1OC [METOCLOPRAMIDE]", "Compound NOT metabolized"),
    ("CCN(CC)CCNC(C(=O)OCCC(C)C)c1ccccc1.Cl.Cl (stereo not given)", "Compound metabolized"),
    ("CCCc1nc2c(C)cc(-c3nc4ccccc4n3C)cc2n1Cc1ccc(-c2ccccc2C(=O)O)cc1", "Compound metabolized"),
]

Query: Bacterial Biotransformation; subject: CC(C)(Oc1ccc(CCNC(=O)c2ccc(Cl)cc2)cc1)C(=O)O [BEZAFIBRATE]
Compound metabolized

Would you kindly repeat that for O=C(NCc1ccccc1)OCCO [BURAMATE] ?
Compound NOT metabolized

Would you kindly repeat that for CN1CCN(C2=Nc3cc(Cl)ccc3Nc3ccccc32)CC1 [CLOZAPINE] ?
Compound NOT metabolized

Would you kindly repeat that for C=CCN1CC[C@]23c4c5ccc(O)c4O[C@H]2C(=O)CC[C@@]3(O)[C@H]1C5 [NALOXONE] ?
Compound NOT metabolized

Would you kindly repeat that for CCC1(c2ccc(N)cc2)CCC(=O)NC1=O (stereo not given) [AMINOGLUTETHIMIDE] ?
Compound NOT metabolized

Would you kindly repeat that for CCCCC1=NC2(CCCC2)C(=O)N1Cc1ccc(-c2ccccc2-c2nnn[nH]2)cc1 [IRBESARTAN] ?
Compound metabolized
